# TARGET UNDER TEST: T1, MUC1 15 aa peptide with cysteine (APDTRPAPGSTAPPA-C) (Homo sapiens (synthetic peptide))
# T1 construct: 15 residues of the tandem repeat (VNTR) of human MUC1; added C-terminal cysteine, used for coupling to the chip; also called MUC1 peptide; MUC1 peptide antigen
# T1 chain: APDTRPAPGSTAPPAC
# MEASUREMENT DESCRIPTION: SPR; Biacore 2000; about 50 RU MUC1 15 aa peptide with cysteine coupled on a CM5 chip (NHS/EDC, PDEA); serial dilutions of scFv (0-400 nM) at 50 µL/min; 1:1 Langmuir separate fitting; IIB6 by steady-state model
# CONDITION SUMMARY: both partners purified
VALUE TYPE: koff (s⁻¹)
Reply with just the number (in s⁻¹).

Given affinity matured anti-MUC1 scFv HT200-3A-C1 (scFv, V domains shown, one potential N-glycosylation site in CDR2; From IIB6 by nested error-prone PCR (library B), panning in solution; source: E. coli, IMAC purified; also culture supernatant from microtitre plates; not shown: c-myc, C-terminal, kept) VH: QMQLVQSGAEVKKPGASVKVSCKASGYTFTGHYMHWVRQAPGQGLEWMGWIDPVTGGTKYAQNFQGWVTMTRDTSIRTAYMELSRLRSDDTAMYYCAREVTGDRGQFDKWGQGTLVTVAS VL: QSVLTQPPSVSMAPGETARITCGGNNIGSKSVHWYQQKPGQAPVLVIYNDSDRPSGIPERFSGSNSGKTATLTISRVEAGDEADYYCQVWDSSIDWVFGGGTKLTVL , state its recorded koff. 0.0001

Given the entry affinity matured anti-MUC1 scFv HT186-B7 (scFv, V domains shown, From IIB6 by error-prone PCR (library A), off-rate panning; source: E. coli, IMAC purified; also culture supernatant from microtitre plates; not shown: c-myc, C-terminal, kept) VH: QMQLVQSGAEVKKPGASVKVSCKASGYTFTGHYMHWVRQAPGQGLEWMGWIDPVTGGTKYAQNFQGWVTMTRDTSIRTAYMELSRLRSDDTAMYYCAREVTGDRGQFDKWGQGTLVTVAS VL: QSVLTQPPSVSVAPGKTARITCGGNNIGSKSVHWYQQKPGQAPALVIYYGSYRPSGIPERFSGSNYGNTATLTIRRVEAGDEADYYCQVWDSSSDWVFGGGTKLTVL , report its measured koff. 2.1e-05

Looking for the measured koff of affinity matured anti-MUC1 scFv HT220-M-D1 (scFv, V domains shown, one potential N-glycosylation site in CDR2; source: E. coli, IMAC purified; also culture supernatant from microtitre plates; not shown: c-myc, C-terminal, kept) VH: QMLLVQSGAEAKKPGASVKVSCKASGYTFTGHYMHWVRQAPGQGLEWMGWIDPVTGGTKYAQNFQGWVTMTRDTSIRTAYMELSRLRPDDTAMYYCAREVTGDRGQFDKWGQGTLVTVAS VL: QSVLTQPPSVSVVPGKTARIICGGNNIGSKSVHWYQQKPGQAPVLVIYNNSDRPSGIPERFSGSNSGNMATLTISRVEAGDESDYYCQVWDSSSDWVFGGGTRLTIL , can you help? 0.00011

Returns the measured koff for the input binder. Input: affinity matured anti-MUC1 scFv HT186-D11 (scFv, V domains shown, From IIB6 by error-prone PCR (library A), off-rate panning; source: E. coli, IMAC purified; also culture supernatant from microtitre plates; not shown: c-myc, C-terminal, kept) VH: QMQLVQSEAELKKPGASVKVSCKASGYSFTGHYMHWVRQAPGQGLEWMGWIDPVTGGTKYAQNFQGWVTMTRDTSIRTAYLELSRLRSDDTAMYYCAREVTGDRGQFDKWGQGTLVTVAS VL: QSVLTQPPSVSVAPGKTARITCGGNNIGSKSVHWYQQKPGQAPALVIYYGSNRPSGIPERFSGSNSGNTATLTISRVEAGDEADYYCQVWDSSSDWVFGGGTKLTVL 7.2e-05

What does the data say about its koff? Entry: affinity matured anti-MUC1 scFv HT220-M-G8 (scFv, V domains shown, source: E. coli, IMAC purified; also culture supernatant from microtitre plates; not shown: c-myc, C-terminal, kept) VH: QMQLVQSGAEVMKPGASVKVSCKASGYSFTGHYMHWVRHAPGQGLEWMGWIDPVTGSTKYAQNFQGWVTMTRDTSISTAYMELSRLRSDDTAMYYCAREVTGDRGQFDKWGQGTLVTVAS VL: QSVLTQPPSVSVAPGKTARITCGGNNIGSKSVHWYQQKPGQAPVLVIYYGSDRPSGIPERFSGSNTGNMATLTISRVEAGDEADYYCQVWDSSSDWVFGGGTKLTVL 0.00022

Values were extracted from paper PMC3021526.
